For each entry below, report its normalized growth value.
assay: chemical genetic growth profiling, strain panel (AID 1159580);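 further: tested at 20 µM; growth read once vehicle control cultures reached saturation at 30 °C; 1 = growth at the plate median or of vehicle wells; lower values mean less growth of the strain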; settings: S. cerevisiae deletion strains, growth OD, locus YDR159W, strain sac3, stronger effect = lower value
Hit rate of the full screen: of about 5,500 compounds, about 2,000 (36%) were called active. About 18% were inconclusive and are not listed. This is one part of the list.
Give bare numbers.

Cc1cc(C)cc(OCC2CNC(=O)O2)c1 (stereo not drawn) :: 0.986

Please supply normalized growth for each of the following items, keeping them in order.
1. COc1ccc(C(=O)CC(=O)c2ccc(C(C)(C)C)cc2)cc1
2. NNCCc1ccccc1
3. CC(CN(C)C)CN1c2ccccc2CCc2ccccc21 (stereo not drawn)

Ans.
1.01
1.01
0.977

Please supply normalized growth for each of the following items, keeping them in order.
1. O=c1[nH]cnc2[nH]ncc12
2. CC(=O)O[C@H]1C[C@@H](OC(C)=O)C(C)(C)C2CC(=O)[C@]3(C)C(CC[C@@]4(C)[C@H](c5ccoc5)OC(=O)[C@H]5O[C@]543)[C@]21C (stereo partly drawn)
3. COc1c(Cl)ccc(Cl)c1C(=O)O

Ans.
1. 1.02
2. 0.973
3. 0.972

Qu. Entry Clc1ccc2c(c1)C(N1CCNCC1)=Nc1ccccc1O2 : reported normalized growth = ?
Ans. 0.984

---

assay: chemical genetic growth profiling, strain panel (AID 1159580); conditions: S. cerevisiae deletion strains, growth OD, locus YER167W, strain BCK2, stronger effect = lower value
Out of some 5,500 compounds screened, about 2,000 (36%) were called active. Roughly 18% stayed inconclusive and do not appear here. This is one part of the list.
For each entry below, report its normalized growth value.
Numbers only.

// worked examples, normalized growth included
Cc1cccc(Nc2ccncc2S(=O)(=O)NC(=O)NC(C)C)c1 :: 1.01
C[C@@H]1CC2C3C[C@H](F)C4=CC(=O)C=C[C@]4(C)[C@@]3(F)[C@@H](O)C[C@]2(C)[C@@]1(O)C(=O)COC(=O)C(C)(C)C (stereo partly drawn) :: 0.997
CC(CN1c2ccccc2Sc2cccnc21)N(C)C (stereo not drawn) :: 1.02

Please supply normalized growth for each of the following items, keeping them in order.
1. CCCCCC1C(=O)CCC1CC(=O)O (stereo not drawn)
2. COc1cc2c(cc1O)C(Cc1ccc(O)cc1)N(C)CC2 (stereo not drawn)

Ans.
[1.01, 1.02]

Please supply normalized growth for each of the following items, keeping them in order.
1. Cc1cc(O)c(C)c2c1C(=O)Oc1c(C)c(O)c(C(=O)O)c(C)c1O2
2. COc1cc(C(=O)O)c2c(c1C)OC(=O)c1c(C)cc(O)c(C=O)c1O2

Ans.
0.994
1.01

---

assay: chemical genetic growth profiling, strain panel (AID 1159580);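 further: tested at 20 µM; growth read once vehicle control cultures reached saturation at 30 °C; 1 = growth at the plate median or of vehicle wells; lower values mean less growth of the strain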; details: S. cerevisiae deletion strains, growth OD, locus YOR316C, strain cot1, stronger effect = lower value
In all, about 5,500 compounds went through this assay and about 2,000 (36%) were called active. Not shown: some 18% with an inconclusive outcome. Some of the results follow.
For each entry below, report its normalized growth value.

// worked examples, normalized growth included
C=C1C2=CC(=O)O[C@@H](c3ccoc3)[C@]2(C)CCC1[C@@]1(C)C=CC(=O)C(C)(C)[C@@H]1CC(=O)OC (stereo partly drawn) :: 0.95 (inactive)
CNCCCN1c2ccccc2CCc2ccccc21 :: 1.01 (inactive)

Please supply normalized growth for each of the following items, keeping them in order.
1. C=C1C(C2(C)C=CC(=O)C(C)(C)C2CC(=O)OC)CC[C@@]2(C)[C@H](c3ccoc3)OC(=O)C3OC132 (stereo partly drawn)
2. O=c1cc(-c2ccccc2)oc2c(O)c(O)ccc12
3. COC(=O)CCC(C)C1CCC2C3CC[C@@H]4C[C@H](O)CC[C@]4(C)C3C[C@H](O)[C@]12C (stereo partly drawn)
4. CN(C)CCC(c1ccc(Br)cc1)c1ccccn1 (stereo not drawn)
5. COc1ccc(C(=O)CC(=O)c2ccc(C(C)(C)C)cc2)cc1

Ans.
1: 0.981 (inactive); 2: 0.987 (inactive); 3: 1.01 (inactive); 4: 0.987 (inactive); 5: 1 (inactive)

Please supply normalized growth for each of the following items, keeping them in order.
1. CC(=O)N=c1sc(S(N)(=O)=O)nn1C
2. C[C@H](N)[C@H](O)c1cccc(O)c1
3. C[C@]12C=CC(=O)C=C1CCC1C3C[C@@H](O)[C@](O)(C(=O)CO)[C@@]3(C)C[C@H](O)[C@@]12F (stereo partly drawn)
4. COc1cc2c(cc1-c1cc3cc4ccoc4cc3oc1=O)OCO2
5. C[C@@H](N)[C@@H](O)c1ccccc1
6. COC(=O)c1c(C)cc(OC(=O)c2c(C)cc(O)c(C=O)c2O)c(C)c1O

Ans.
1 (inactive)
0.99 (inactive)
0.991 (inactive)
1.17 [resistant] (active)
0.985 (inactive)
1.03 (inactive)

Please supply normalized growth for each of the following items, keeping them in order.
1. COc1cc(C)c(C(=O)Oc2cc(C)c(C(=O)O)c(O)c2C)c(OC)c1C
2. CCN(CCCc1ccccc1)CCCc1ccccc1
3. COc1cc(OC)c(OC)cc1C=O
4. C=C1C2CC[C@@]3(C)[C@H](c4ccoc4)OC(=O)C[C@]13O[C@H]1CC(O)C(C)(C)C(CC(=O)OC)[C@@]21C (stereo partly drawn)
5. COc1cc([C@H]2Oc3cc([C@H]4Oc5cc(O)cc(O)c5C(=O)[C@@H]4O)ccc3O[C@@H]2CO)ccc1O

Ans.
1: 1.01 (inactive); 2: 1.03 (inactive); 3: 0.99 (inactive); 4: 1.01 (inactive); 5: 0.985 (inactive)

Please supply normalized growth for each of the following items, keeping them in order.
1. N[C@@H]1[C@@H](O)[C@H](O)[C@@H](CO)O[C@H]1O
2. CN(C(=O)CN(CCO)CC(=O)N(C)C(C)(C)Cc1ccccc1)C(C)(C)Cc1ccccc1
3. Cc1nc2sccn2c(=O)c1CCN1CCC(=C(c2ccc(F)cc2)c2ccc(F)cc2)CC1
4. NC(N)=O
5. O=c1cc(-c2cc(O)c(O)c(O)c2)oc2cc(O)cc(O)c12

Ans.
1.01 (inactive)
0.971 (inactive)
0.996 (inactive)
0.985 (inactive)
0.987 (inactive)

---

test: chemical genetic growth profiling, strain panel (AID 1159580);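 further: tested at 20 µM; growth read once vehicle control cultures reached saturation at 30 °C; 1 = growth at the plate median or of vehicle wells; lower values mean less growth of the strain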; details: S. cerevisiae deletion strains, growth OD, locus YJL164C, strain tpk1
The whole screen tested about 5,500 compounds, of which about 2,000 (36%) were called active. Inconclusive results (about 18%) are left out. Cut-off read from the data, not from the text of the source: active = normalized growth mostly below about 0.91 (no sharp cut-off); inconclusive = no clear call, values can overlap the other calls; inactive = mostly above about 0.92. This is one part of the list.
One label from this list, please: active, inactive

// known answers, use as guide
Nc1cc(-c2ccncc2)c[nH]c1=O :: active
Nc1ccn(C2O[C@H](CO)[C@@H](O)[C@H]2O)c(=O)n1 (some centres not stated) :: inactive
COc1c2ccccc2nc2occc12 :: active
O=c1cc(-c2ccccc2)oc2c(O)c(O)ccc12 :: inactive
CC(CCC(=O)O)[C@H]1CCC2C3C[C@H](O)[C@@H]4C[C@H](O)CC[C@]4(C)C3CC[C@@]21C (some centres not stated) :: inactive

Qu. Tell me the assay call for Cc1cc(=O)oc2c(O)c(O)ccc12 please.
Ans. inactive

Qu. Tell me the assay call for Cc1cc(O)c(C=O)c2c1C(=O)Oc1c(COC(=O)/C=C/C(=O)O)c(O)c(C(=O)O)c(C)c1O2 please.
Ans. inactive

---

experiment: chemical genetic growth profiling, strain panel (AID 1159580);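 further: tested at 20 µM; growth read once vehicle control cultures reached saturation at 30 °C; 1 = growth at the plate median or of vehicle wells; lower values mean less growth of the strain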; settings: S. cerevisiae deletion strains, growth OD, locus YDR162C, strain NBP2, stronger effect = lower value
Among all 5,500 compounds or so, about 2,000 (36%) were called active. Inconclusive results (about 18%) are left out. Some of the results follow.
For each entry below, report its normalized growth value.
One number for each entry.

COc1cc([C@H]2Oc3cc([C@H]4Oc5cc(O)cc(O)c5C(=O)[C@@H]4O)ccc3O[C@@H]2CO)ccc1O :: 1.02
C=C[C@H]1CN2CC[C@H]1C[C@@H]2[C@H](O)c1ccnc2ccccc12 :: 0.988
COc1c(Cl)ccc(Cl)c1C(=O)O :: 1.01

Please supply normalized growth for each of the following items, keeping them in order.
1. Nc1ccn(C2O[C@H](CO)[C@@H](O)[C@H]2O)c(=O)n1 (some centres not stated)
2. O=c1[nH]cnc2[nH]ncc12
3. N[C@H](Cc1cc(I)c(Oc2ccc(O)c(I)c2)c(I)c1)C(=O)O
4. C=C1C2CC[C@@]3(C)[C@H](c4ccoc4)OC(=O)C[C@]13O[C@H]1CC(O)C(C)(C)C(CC(=O)OC)[C@@]21C (some centres not stated)

Ans.
1. 1
2. 1.01
3. 0.999
4. 1.01

Please supply normalized growth for each of the following items, keeping them in order.
1. CCN(CC)C(C)CN1c2ccccc2Sc2ccccc21 (configuration not stated)
2. c1ccc2c(c1)CN1CCCC1=N2

Ans.
1: 0.987; 2: 1.02

Please supply normalized growth for each of the following items, keeping them in order.
1. CC(CN(C)C)CN1c2ccccc2Sc2ccccc21 (configuration not stated)
2. COc1cc([C@@H]2c3cc4c(cc3[C@H](OC(C)=O)[C@H]3COC(=O)[C@@H]23)OCO4)cc(OC)c1OC
3. C[C@H](N)[C@H](O)c1ccccc1

Ans.
0.991
1.01
1.01
